All values here come from patent US20260193326A1.

Biological target: T1, AAV2 (UniProt P03135 1-735)
T1 construct: also called adeno-associated virus serotype 2
T1 sequence (P03135 whole entry): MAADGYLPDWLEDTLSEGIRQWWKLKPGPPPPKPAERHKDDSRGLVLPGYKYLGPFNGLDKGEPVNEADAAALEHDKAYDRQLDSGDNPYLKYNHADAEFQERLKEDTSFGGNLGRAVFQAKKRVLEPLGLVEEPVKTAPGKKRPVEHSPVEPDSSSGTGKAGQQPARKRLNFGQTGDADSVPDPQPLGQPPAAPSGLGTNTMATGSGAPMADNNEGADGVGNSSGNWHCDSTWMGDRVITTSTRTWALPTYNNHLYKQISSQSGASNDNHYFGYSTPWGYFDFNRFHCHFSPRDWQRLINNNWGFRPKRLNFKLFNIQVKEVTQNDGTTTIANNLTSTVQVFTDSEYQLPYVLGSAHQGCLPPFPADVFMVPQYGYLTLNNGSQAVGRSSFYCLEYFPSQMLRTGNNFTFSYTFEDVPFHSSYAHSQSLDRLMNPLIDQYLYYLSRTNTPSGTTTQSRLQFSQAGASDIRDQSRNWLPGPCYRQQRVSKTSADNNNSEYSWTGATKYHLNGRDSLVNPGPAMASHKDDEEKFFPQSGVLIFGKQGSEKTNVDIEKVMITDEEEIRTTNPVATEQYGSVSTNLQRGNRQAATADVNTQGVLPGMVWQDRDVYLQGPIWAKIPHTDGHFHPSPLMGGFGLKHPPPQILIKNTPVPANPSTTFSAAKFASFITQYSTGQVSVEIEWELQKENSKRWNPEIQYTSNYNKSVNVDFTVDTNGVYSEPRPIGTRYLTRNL
Experiment: SPR, AAV on CM5 chip;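 also: surface plasmon resonance with AAV amine-coupled to the chip as ligand, nanobodies injected as analyte over a concentration series, rate constants and affinity fitted from binding curves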
reported-property: kon (M⁻¹ s⁻¹)
Number only, in M⁻¹ s⁻¹; omit the unit.

Example entries begin here.
binder	units-symbol	kon
A4-012 (VHH) VHH: VQLQESGGGAVQAGGSLRLSCAASGSIFSINSMGWYRQAPGKQRELVATVTRGGNTNYAGSVKGRFTISRDNAKNTVYLQMNSLRPEDTAVYYCHVDEVRESSWTTSNLWGQGTQVTVSS	M⁻¹ s⁻¹	47000
A4-032 (VHH) VHH: VQLQESGGGLVQPGGSLRLSCVASGSSFSINTMGWYRQAPGKQRELVATVTRDGSTNYANSVKGRFTISRDNAKNTVYLQMNSLRPEDTAVYYCHVDEVRQSSWTTSNLWGQGTQVTVSS	M⁻¹ s⁻¹	158000
A4-021 (VHH) VHH: VQLQESGGGLVQAGGSLRLSCAASGSTFSINTMGWYRQAPGKQRELVATITRGGNTNYADSVKGRFTISRDNAKNTVYLQMNSLRPEDTAVYYCHVDEVRQSSWTTSNIWGQGTQVTVSS	M⁻¹ s⁻¹	54800
A4-001 (VHH) VHH: VQLQESGGGLVQPGGSLRLSCAASGRSFSINTMGWYRQAPGKQRELVATVTRGGSTNYAGSVKGRFTISRDNAKNTVYLQMNSLRPEDTAVYYCHIDEVRQSSWTTSNIWGQGTQVTVSS	M⁻¹ s⁻¹	60100
A4-044 (VHH) VHH: VQLQESGGGLVQPGGSLRLSCAASGSSFSINTMGWYRQAPGKQRELVATVTRGGVTNYADSVKGRFTISRDNAKNTVYLQMNSLRPEDTAVYYCHVDEVRQSSWTTSNLWGQGTQVTVSS	M⁻¹ s⁻¹	52900
A4-046 (VHH) VHH: VQLQESGGGLVQPGGSLRLSCAASGSRFSINTMGWYRQAPGKQRELVATVTRGGSTNYADSVKGRFTISRDNAKNTVYLQMNSLRPEDTAVYYCHVDEVRQSSWTTSNLWGQGTQVTVSS	M⁻¹ s⁻¹	148000

State its kon: A4-038 (VHH) VHH: VQLQESGGGLVQPGGSLRLSCAASGSHFSINTMGWYRQAPGKQRELVATVTRGGSTNYANSVKGRFTISRDNAKNTVYLQMNSLRPEDTAVYYCHLDEVRQSSWTTSNLWGQGTQVTVSS
199000

State its kon: A4-034 (VHH) VHH: VQLQESGGGLVQPGGSLRLSCAASGRGFSINTMGWYRQAPGKQRELVAAVTRGGTTNYADSVKGRFTISRDNAKNTVYLQMNSLRPEDTAVYYCHVDEVRQSSWTTSNLWGQGTQVTVSS
196000
